A collection of compounds and their measured IC50
target: UniProt Q00975; experiment: Assessment of calcium channel activity using FLIPR (Ca2+ influx in IMR32 cells); format: cell-based; conditions: read-out: IC50 (μM) or percent inhibition (* indicates 3 minute incubation, otherwise 60 minute); IC50; 60 minute pre-incubation with compound; IMR32 cells, 80 mM KCl depolarization

COMPOUND | ASSAYED TARGET | IC50 [µM]
O=C(N[C@H]1CC[C@H]2CN(CCCc3ccc(C(F)(F)F)cc3)C[C@H]21)C(C1CCCCC1)C1CCCCC1 [Example 70] | UniProt Q00975 | 1.93
CCN(CC)[C@H]1CC[C@@H]2CN(S(=O)(=O)c3ccc(C(F)(F)F)cc3Cl)C[C@@H]21 [Example 294] | UniProt Q00975 | 7.8
CC(C)C[C@H](C(=O)N[C@@H]1CC[C@H]2CN(Cc3cccc(C(F)(F)F)c3)C[C@H]21)N(C)C(=O)OC(C)(C)C (relative stereo) [Example 150] | UniProt Q00975 | 0.51

---

target: human Cav2.2 (Homo sapiens, UniProt Q00975); assay: Assessment of calcium channel activity using FLIPR (Ca2+ influx in IMR32 cells); type: cell-based
Sequence (Q00975 whole entry): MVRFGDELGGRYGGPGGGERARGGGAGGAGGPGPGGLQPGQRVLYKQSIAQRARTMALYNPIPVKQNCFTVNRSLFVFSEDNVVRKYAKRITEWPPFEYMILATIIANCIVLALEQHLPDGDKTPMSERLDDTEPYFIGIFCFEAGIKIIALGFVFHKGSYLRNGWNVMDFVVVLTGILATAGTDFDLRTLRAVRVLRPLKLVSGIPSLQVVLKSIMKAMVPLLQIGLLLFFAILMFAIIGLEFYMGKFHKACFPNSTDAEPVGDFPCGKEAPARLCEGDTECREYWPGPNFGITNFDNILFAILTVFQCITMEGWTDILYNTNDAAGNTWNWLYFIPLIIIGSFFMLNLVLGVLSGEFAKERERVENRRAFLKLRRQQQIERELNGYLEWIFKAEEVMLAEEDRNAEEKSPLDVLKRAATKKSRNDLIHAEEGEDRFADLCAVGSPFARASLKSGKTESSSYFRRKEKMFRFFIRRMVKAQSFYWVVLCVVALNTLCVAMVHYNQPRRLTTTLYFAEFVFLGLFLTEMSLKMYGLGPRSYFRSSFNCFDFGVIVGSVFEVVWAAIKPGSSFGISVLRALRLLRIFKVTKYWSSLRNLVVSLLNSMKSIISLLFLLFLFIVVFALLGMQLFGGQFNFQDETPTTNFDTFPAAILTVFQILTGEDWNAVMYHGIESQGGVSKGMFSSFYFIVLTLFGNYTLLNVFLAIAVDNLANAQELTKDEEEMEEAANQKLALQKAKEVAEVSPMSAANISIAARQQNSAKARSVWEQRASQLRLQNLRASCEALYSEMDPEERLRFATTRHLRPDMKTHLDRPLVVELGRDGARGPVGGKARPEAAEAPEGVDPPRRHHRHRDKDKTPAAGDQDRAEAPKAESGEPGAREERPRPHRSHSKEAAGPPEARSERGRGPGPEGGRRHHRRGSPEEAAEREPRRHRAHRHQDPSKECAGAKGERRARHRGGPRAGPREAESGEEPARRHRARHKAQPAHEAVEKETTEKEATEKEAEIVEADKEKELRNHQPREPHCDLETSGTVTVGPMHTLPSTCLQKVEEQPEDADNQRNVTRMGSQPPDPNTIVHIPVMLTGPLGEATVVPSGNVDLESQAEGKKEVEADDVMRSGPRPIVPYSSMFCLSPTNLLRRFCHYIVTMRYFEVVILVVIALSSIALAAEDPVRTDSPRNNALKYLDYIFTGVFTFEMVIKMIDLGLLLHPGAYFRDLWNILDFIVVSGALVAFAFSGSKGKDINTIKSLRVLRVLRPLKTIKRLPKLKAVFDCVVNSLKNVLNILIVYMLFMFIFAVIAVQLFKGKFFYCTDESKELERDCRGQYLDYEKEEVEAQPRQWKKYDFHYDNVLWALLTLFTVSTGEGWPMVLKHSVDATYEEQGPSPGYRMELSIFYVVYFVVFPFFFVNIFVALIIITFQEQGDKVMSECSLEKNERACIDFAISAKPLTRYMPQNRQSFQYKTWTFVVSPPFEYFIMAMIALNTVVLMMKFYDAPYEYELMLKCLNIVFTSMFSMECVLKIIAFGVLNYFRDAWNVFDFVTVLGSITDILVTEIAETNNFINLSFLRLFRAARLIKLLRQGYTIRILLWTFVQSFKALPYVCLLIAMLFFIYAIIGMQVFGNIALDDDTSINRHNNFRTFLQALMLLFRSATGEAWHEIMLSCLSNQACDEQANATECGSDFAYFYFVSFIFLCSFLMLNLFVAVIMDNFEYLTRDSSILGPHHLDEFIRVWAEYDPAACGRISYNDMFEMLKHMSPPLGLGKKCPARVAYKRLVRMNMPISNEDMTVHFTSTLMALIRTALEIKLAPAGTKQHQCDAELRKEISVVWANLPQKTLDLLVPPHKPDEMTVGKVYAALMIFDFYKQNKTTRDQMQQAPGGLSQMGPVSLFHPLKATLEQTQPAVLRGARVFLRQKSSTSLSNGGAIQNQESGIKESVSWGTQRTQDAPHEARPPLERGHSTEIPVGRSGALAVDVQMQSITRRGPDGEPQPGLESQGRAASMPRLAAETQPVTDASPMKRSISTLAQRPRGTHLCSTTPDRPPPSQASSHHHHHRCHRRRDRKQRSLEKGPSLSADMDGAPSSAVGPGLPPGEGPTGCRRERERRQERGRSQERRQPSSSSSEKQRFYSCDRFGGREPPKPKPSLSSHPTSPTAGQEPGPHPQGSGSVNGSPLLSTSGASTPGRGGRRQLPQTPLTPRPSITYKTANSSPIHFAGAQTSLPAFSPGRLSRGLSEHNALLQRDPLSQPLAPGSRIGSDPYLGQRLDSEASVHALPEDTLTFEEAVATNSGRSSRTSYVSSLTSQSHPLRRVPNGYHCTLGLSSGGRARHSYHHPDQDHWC
Sequence (P54289 25-956 partner limits assumed): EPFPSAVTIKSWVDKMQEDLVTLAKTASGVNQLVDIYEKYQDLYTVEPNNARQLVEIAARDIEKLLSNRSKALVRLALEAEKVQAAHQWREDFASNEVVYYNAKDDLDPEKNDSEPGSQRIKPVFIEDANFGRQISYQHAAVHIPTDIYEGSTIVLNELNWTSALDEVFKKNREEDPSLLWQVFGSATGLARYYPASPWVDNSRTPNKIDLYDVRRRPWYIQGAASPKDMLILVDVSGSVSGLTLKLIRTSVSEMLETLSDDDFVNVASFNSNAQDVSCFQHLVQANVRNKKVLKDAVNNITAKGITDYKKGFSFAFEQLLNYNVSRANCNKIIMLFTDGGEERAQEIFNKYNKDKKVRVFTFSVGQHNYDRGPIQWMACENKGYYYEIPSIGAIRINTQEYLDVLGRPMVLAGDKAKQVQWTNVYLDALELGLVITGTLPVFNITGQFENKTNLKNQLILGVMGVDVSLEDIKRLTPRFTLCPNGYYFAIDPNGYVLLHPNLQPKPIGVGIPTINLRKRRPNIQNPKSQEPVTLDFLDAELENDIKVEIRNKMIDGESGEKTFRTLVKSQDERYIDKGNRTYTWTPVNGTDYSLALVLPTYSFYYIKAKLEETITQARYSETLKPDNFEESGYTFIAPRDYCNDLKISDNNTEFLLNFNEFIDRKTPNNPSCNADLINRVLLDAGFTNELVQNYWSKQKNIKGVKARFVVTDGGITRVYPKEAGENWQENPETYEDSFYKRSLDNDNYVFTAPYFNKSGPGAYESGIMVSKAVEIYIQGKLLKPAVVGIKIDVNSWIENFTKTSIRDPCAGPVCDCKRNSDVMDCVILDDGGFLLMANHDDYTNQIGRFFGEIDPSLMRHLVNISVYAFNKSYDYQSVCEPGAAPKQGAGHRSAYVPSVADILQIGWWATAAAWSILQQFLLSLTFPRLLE
Sequence (P54289 957-1103 partner limits assumed): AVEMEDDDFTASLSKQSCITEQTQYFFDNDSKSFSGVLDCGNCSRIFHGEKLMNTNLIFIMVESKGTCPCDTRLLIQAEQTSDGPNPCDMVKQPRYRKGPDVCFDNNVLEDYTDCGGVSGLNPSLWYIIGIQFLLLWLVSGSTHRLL
Sequence (P54284 whole entry partner): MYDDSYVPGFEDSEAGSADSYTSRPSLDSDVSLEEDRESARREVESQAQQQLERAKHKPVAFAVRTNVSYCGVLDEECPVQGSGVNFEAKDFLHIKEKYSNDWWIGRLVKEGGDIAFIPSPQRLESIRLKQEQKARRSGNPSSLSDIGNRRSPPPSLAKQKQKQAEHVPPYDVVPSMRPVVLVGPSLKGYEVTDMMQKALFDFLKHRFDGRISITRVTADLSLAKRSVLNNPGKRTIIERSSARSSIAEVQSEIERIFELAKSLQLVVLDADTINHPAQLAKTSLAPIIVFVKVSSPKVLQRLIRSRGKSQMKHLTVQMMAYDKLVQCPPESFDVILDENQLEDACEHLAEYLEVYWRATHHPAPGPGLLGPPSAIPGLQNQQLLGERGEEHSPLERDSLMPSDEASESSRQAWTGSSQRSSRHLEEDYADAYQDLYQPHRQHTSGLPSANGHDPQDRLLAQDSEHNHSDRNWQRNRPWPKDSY
PROPERTY NAME: IC50 (µM)

QUERY SMILES | PROPERTY NAME | MEASUREMENT
O=C(N[C@H]1CC[C@@H]2CN(c3cccc(C(F)(F)F)n3)C[C@@H]21)[C@H]1CC[C@@H](O)CC1 | IC50 | 2.06
O=S(=O)(N[C@H]1CC[C@@H]2CN(c3cccc(C(F)(F)F)n3)C[C@@H]21)c1ccc(F)cc1 | IC50 | 3.82
CN[C@@H](CC(C)C)C(=O)N[C@H]1CC[C@@H]2CN(c3ccccc3C)C[C@@H]21 | IC50 | 3.34

---

target: human Cav2.2 (Homo sapiens); experiment: Assessment of calcium channel activity using FLIPR (Ca2+ influx in IMR32 cells); format: cell-based; conditions: read-out: IC50 (μM) or percent inhibition (* indicates 3 minute incubation, otherwise 60 minute); IC50; 60 minute pre-incubation with compound; IMR32 cells, 80 mM KCl depolarization

COMPOUND | QUANTITY UNIT | IC50
CC(C)C(C(=O)N[C@H]1CC[C@H]2CN(Cc3ccccc3)C[C@H]21)c1ccccc1 (stereo partly shown) | µM | 3.79
CC(C)C(C(=O)N[C@H]1CC[C@@H]2CN(CCCCC(c3ccc(F)cc3)c3ccc(F)cc3)C[C@@H]21)c1ccccc1 (stereo partly shown) | µM | 1.12
CC(C)(C)CN[C@@H](CC(C)(C)C)C(=O)N[C@H]1CC[C@@H]2CN(S(=O)(=O)c3ccc(C(F)(F)F)cc3)C[C@@H]21 | µM | 2.23
O=S(=O)(c1cccc(C(F)(F)F)c1)N(C1CC1)[C@H]1CC[C@H]2CN(CCCCCC(c3ccc(F)cc3)c3ccc(F)cc3)C[C@H]21 (relative stereo) | µM | 0.83
O=C(CCC(c1ccc(F)cc1)c1ccc(F)cc1)N[C@@H]1CC[C@H]2CN(Cc3cccc(C(F)(F)F)c3)C[C@H]21 (relative stereo) | µM | 1.04
CC(C)C[C@H](C(=O)N1C[C@@H]2CC[C@@H](NC(=O)C(C3CCCCC3)C3CCCCC3)[C@@H]2C1)N(C)C | µM | 1.28
CCC[C@H](NC1CCCC1)C(=O)N[C@H]1CC[C@@H]2CN(S(=O)(=O)c3ccc(C(F)(F)F)cc3)C[C@@H]21 | µM | 1.71
CC(C)C(C(=O)N[C@H]1CC[C@@H]2CN(CCC(c3ccccc3)c3ccccc3)C[C@@H]21)c1ccccc1 (stereo partly shown) | µM | 1.17
CC(C)C[C@@H](C(=O)N[C@@H]1CC[C@H]2CN(Cc3cccc(C(F)(F)F)c3)C[C@H]21)N(C)S(C)(=O)=O | µM | 0.92
O=C(N[C@@H]1CC[C@H]2CN(CCCC(c3ccc(F)cc3)c3ccc(F)cc3)C[C@H]21)C(C1CCCCC1)C1CCCCC1 | µM | 1.13
CCC[C@H](NC)C(=O)N[C@H]1CC[C@@H]2CN(S(=O)(=O)c3cc(C(F)(F)F)cc(C(F)(F)F)c3)C[C@@H]21 | µM | 3.75
CC(C)C(C(=O)N(C)[C@@H]1CC[C@H]2CN(Cc3ccccc3)C[C@H]21)c1ccccc1 (relative stereo) | µM | 1.99
CC(C)C[C@@H](C(=O)N[C@H]1CC[C@H]2CN(Cc3ccccc3)C[C@H]21)N(C)C(=O)OC(C)(C)C | µM | 3.32
Cc1cccc(C)c1CN1C[C@H]2CC[C@H](NC(=O)C(c3ccccc3)C(C)C)[C@H]2C1 (stereo partly shown) | µM | 3.26
CN[C@@H](CC(C)C)C(=O)N[C@@H]1CC[C@H]2CN(Cc3ccc(F)cc3)C[C@H]21 | µM | 9.26
O=S(=O)(c1cccc(C(F)(F)F)c1)N(C1CC1)[C@H]1CC[C@H]2CN(CCC(c3ccc(F)cc3)c3ccc(F)cc3)C[C@H]21 (relative stereo) | µM | 1.54
CC(C)(C)OC(=O)N[C@H](C(=O)N[C@H]1CC[C@@H]2CN(Cc3ccccc3)C[C@@H]21)C(C)(C)C | µM | 9.36
CN[C@@H](CC(C)(C)C)C(=O)N(C)[C@H]1CC[C@@H]2CN(S(=O)(=O)c3ccc(C(F)(F)F)cc3Cl)C[C@@H]21 | µM | 1.42
CCC[C@@H](C(=O)N[C@@H]1CC[C@H]2CN(Cc3ccccc3)C[C@H]21)N(C)C(=O)OC(C)(C)C | µM | 2.8
